procedure text: Allometric extrapolation of population pharmacokinetic parameters to humans
condition notes: human, plasma, intravenous, estimated from allometric equations derived from mouse, rat and monkey, read-out: t1/2,α (converted)
measurement name: half-life

Short answer for CC(C)=CCC/C(C)=C/CC/C(C)=C/CN1C(=O)c2cccc(O)c2Nc2c(O)cc(O)cc21 : half-life was 30.5 min

====

procedure text: Pharmacokinetics and tissue distribution after bolus IV, IP, SC and PO administration in mice
Type: in vivo, female Crl: CD1 mice
condition notes: female, Crl:CD1, mouse, plasma, 30 mg/kg bolus IV, by 8 hours, read-out: plasma concentration
measurement name: concentration at 8 h

Short answer for CC(C)=CCC/C(C)=C/CC/C(C)=C/CN1C(=O)c2cccc(O)c2Nc2c(O)cc(O)cc21 : concentration at 8 h was ~100 nM
